Data credit: patent US3982999A

# protocol-details: Preliminary toxicity study, single intraperitoneal dose
# condition-set: mouse, in vivo, ip; single intraperitoneal (i.p.) dose, suspended in Klucel (0.3% hydroxy-propylcellulose), male BDF1 mice
measured-parameter: LD50

Quickly give me recorded LD50 for Oc1cccc2cccnc12 [8-Hydroxyquinoline, 8-hydroxyquinoline] ~75 mg/kg
